test: yeast display, Sf9 membrane polyspecificity reagent, FACS + sequencing; frameworks hold sequencing errors
endpoint_name: polyreactivity (PSR sort gate)

Here are 4 sequences together with their reported answers.
Problem: Fill in the blank: the reported polyreactivity (PSR sort gate) of QVQLVESGGRLVQAGGSLRLSCAASGSTFDNNAMGWYRQAPGKEREFVAAITYSGGGSTSYADSVKGRFTISRDNAKNTVYLQMNSLKAEDTAVYFCAARDFETDGYTLVAYIYWGQGSQVTVSS is ____.
Solution: low polyreactivity

Problem: Can you look up the measured polyreactivity (PSR sort gate) of QVQLVESGGGFVQAGGSLRLSCAASGSTFRWNAMGWYRHAPGKERELDASITAGGSTNYADSVKGRFTISRDNAKNTVYLQINSLTPEDTAVYYCNADVRRSTYYVWLYDYWGQGTQVTVSS for me?
Solution: low polyreactivity

Problem: Requested read-out: polyreactivity (PSR sort gate). Entry: QVQLVESGGGLVQAGGSLRLSCAASGFIFYYYAMGWYRQAPGKEREFVAGISRSGGSTYYADSVKGRFTISRDNAKNTVYLQMNSLKPEDTAVYYCGEFWTYWGYGQYDYWGQGTQVTVSS
Solution: low polyreactivity

Problem: Give the measured polyreactivity (PSR sort gate) of QVQLVESGGGLVKAGGSLRLSCAASGLTFRVYAMGWYRQAPGKECELVATISRTGSTTYAESVQGRFTISRDNAKNTVYLQMNSLKPEDTAVYYCNARYYFLLWDSLAREYWGQGTQVTVTS .
Solution: high polyreactivity

***
Problem: What value of polyreactivity (PSR sort gate) has been recorded for this entry: QVQLVESGGGLVQAGGSLRLSCAASGRIFGRYAMGWYRQAPGQERELVAGISARGGSTYYADSVKGRFTISRDNAKNTVYLQMNSLKPDDTAVYYCAAYAGFSDQAGYFYWGQGTQVTVSS
Solution: high polyreactivity
